# run-description: chemical genetic growth profiling, strain panel (AID 1159580);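 also: tested at 20 µM; growth read once vehicle control cultures reached saturation at 30 °C; 1 = growth at the plate median or of vehicle wells; lower values mean less growth of the strain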
# condition-set: S. cerevisiae deletion strains, growth OD, locus YNL298W, strain CLA4
The whole screen tested about 5,500 compounds, of which about 2,000 (36%) were called active. Another 18% or so got no clear call; they are omitted. Rule as the data show it: active = normalized growth mostly below about 0.91 (no sharp cut-off); inconclusive = no clear call, values can overlap the other calls; inactive = mostly above about 0.92. Some of the results follow.
Output constraint: value belongs to label 1 = active, label 0 = inactive

# compound, label-class
data = [
    ("C=C1C(N)CC2CC1C2(C)C (stereo unspecified)", "label 0"),
    ("COc1cccc(-c2cc(=O)c3cc(OC)ccc3o2)c1", "label 0"),
    ("CC1=CCc2c(cc3oc(C)cc(=O)c3c2O)OC1", "label 0"),
    ("O=c1c(-c2cc(O)c(O)c(O)c2)coc2cc(O)c(O)c(O)c12", "label 0"),
    ("COC(=O)C1=C(C)NC(C)=C(C(=O)OC)C1c1ccccc1[N+](=O)[O-]", "label 0"),
]

q: What is the recorded call for this compound in the test? Clc1ccc(Cl)cc1
a: label 0

q: Please state the recorded outcome for this compound: COC(=O)C1=C(C)NC(C)=C(C(=O)OCCN(C)Cc2ccccc2)C1c1cccc([N+](=O)[O-])c1 (stereo unspecified)
a: label 0

q: Please let me know the test result on file for CC1=C2C(=CO[C@H](C)[C@H]2C)C(=O)C(C(=O)O)=C1O .
a: label 0

q: Write down the call the test reported for this compound. Item: Nc1nc(N)c2nc(-c3ccccc3)c(N)nc2n1
a: label 0

q: Identify the outcome logged in this assay for the compound shown: COc1ccc(-c2cc(=O)c3cc(OC)ccc3o2)cc1
a: label 0

q: Dear all, I need the recorded test outcome for COc1ccc(-c2cc(=O)c3c(OC(C)=O)cc(OC(C)=O)cc3o2)cc1 , thank you.
a: label 0

q: For CC(N)Cc1ccc(O)cc1 (stereo unspecified) , what call appears in the results of this test?
a: label 0
